Every entry's value here was drawn from the supplement of paper PMC10567573.

B1: TFE3 (parent)
chain: FHLGLEDILMEEEEGVVGGLSGGA

Variants of: B1
test: protein stability index of a GFP-peptide fusion (GPS, HEK-293T) (PSI 1-6); higher = more stable;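 further: lentivirally expressed fusions sorted by FACS into six bins by GFP to DsRed ratio, PSI derived from sequencing read proportions per bin multiplied by bin number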
test parameters: c terminus: a fixed tail appended
test readout: protein stability index

Please fill in: protein stability index reported for E11S = 2.95

Please fill in: protein stability index reported for I8R = 3.93

Please fill in: protein stability index reported for G19R = 3.54

Please fill in: protein stability index reported for G19S = 3.28

Please fill in: protein stability index reported for G18T = 3.5

Please fill in: protein stability index reported for H2T = 4.23

Please fill in: protein stability index reported for L3N = 4.17

Please fill in: protein stability index reported for E12Q = 3.47

Please fill in: protein stability index reported for E14Q = 2.98

Please fill in: protein stability index reported for G23L = 3.58

Please fill in: protein stability index reported for E13H = 3.19

Please fill in: protein stability index reported for G19H = 3.47

Please fill in: protein stability index reported for G4H = 2.94

Please fill in: protein stability index reported for E11D = 3.66

Please fill in: protein stability index reported for M10C = 3.83

Please fill in: protein stability index reported for G22C = 3.3

Please fill in: protein stability index reported for G18A = 3.64

Please fill in: protein stability index reported for E12P = 2.43

Please fill in: protein stability index reported for E11A = 3.08

Please fill in: protein stability index reported for G18I = 3.35

Please fill in: protein stability index reported for L20P = 3.79

Please fill in: protein stability index reported for E13W = 2.18

Please fill in: protein stability index reported for G18Y = 3.23

Please fill in: protein stability index reported for H2R = 4.16

Please fill in: protein stability index reported for G15Q = 4.23

Please fill in: protein stability index reported for L9W = 2.66

Please fill in: protein stability index reported for H2Q = 4.44

Please fill in: protein stability index reported for F1D = 5.21

Please fill in: protein stability index reported for E13R = 3.1

Please fill in: protein stability index reported for A24L = 2.94

Please fill in: protein stability index reported for G19N = 3.84

Please fill in: protein stability index reported for V17A = 3.54

Please fill in: protein stability index reported for L9E = 4.57

Please fill in: protein stability index reported for L9R = 4.5

Please fill in: protein stability index reported for D7Y = 1.57

Please fill in: protein stability index reported for F1Q = 5.15

Please fill in: protein stability index reported for S21L = 3.01

Please fill in: protein stability index reported for M10E = 4.27

Please fill in: protein stability index reported for G22P = 3.64

Please fill in: protein stability index reported for F1E = 4.53

Please fill in: protein stability index reported for E6Q = 3.31

Please fill in: protein stability index reported for F1W = 4.09

Please fill in: protein stability index reported for L3D = 5.27

Please fill in: protein stability index reported for F1A = 5.2

Please fill in: protein stability index reported for G15R = 4.03

Please fill in: protein stability index reported for G18D = 4.06

Please fill in: protein stability index reported for L9M = 4.1

Please fill in: protein stability index reported for V16W = 3.33

Please fill in: protein stability index reported for E6K = 2.68

Please fill in: protein stability index reported for E14S = 2.83

Please fill in: protein stability index reported for E14R = 3.55

Please fill in: protein stability index reported for L20H = 4.24

Please fill in: protein stability index reported for L5I = 3.7

Please fill in: protein stability index reported for M10R = 3.23

Please fill in: protein stability index reported for V16D = 4.07

Please fill in: protein stability index reported for E13G = 2.58

Please fill in: protein stability index reported for M10I = 3.81

Please fill in: protein stability index reported for E14P = 3.53

Please fill in: protein stability index reported for L20K = 4.55

Please fill in: protein stability index reported for L20G = 3.98

Please fill in: protein stability index reported for H2W = 2.94

Please fill in: protein stability index reported for G23Q = 3.89

Please fill in: protein stability index reported for A24G = 4.32

Please fill in: protein stability index reported for I8V = 4.08

Please fill in: protein stability index reported for G19T = 3.48
